This collection of values is drawn from BigSolDB 2.1.

# cond: in ethanol, 278.15 K
quantityName: solubility (mole fraction)

// recorded solubility (mole fraction) for COC(=O)c1ccnc(N)c1 : 0.00321
